test system: FGFR1 (UniProt P11362)
Sequence (P11362 whole entry, looked up): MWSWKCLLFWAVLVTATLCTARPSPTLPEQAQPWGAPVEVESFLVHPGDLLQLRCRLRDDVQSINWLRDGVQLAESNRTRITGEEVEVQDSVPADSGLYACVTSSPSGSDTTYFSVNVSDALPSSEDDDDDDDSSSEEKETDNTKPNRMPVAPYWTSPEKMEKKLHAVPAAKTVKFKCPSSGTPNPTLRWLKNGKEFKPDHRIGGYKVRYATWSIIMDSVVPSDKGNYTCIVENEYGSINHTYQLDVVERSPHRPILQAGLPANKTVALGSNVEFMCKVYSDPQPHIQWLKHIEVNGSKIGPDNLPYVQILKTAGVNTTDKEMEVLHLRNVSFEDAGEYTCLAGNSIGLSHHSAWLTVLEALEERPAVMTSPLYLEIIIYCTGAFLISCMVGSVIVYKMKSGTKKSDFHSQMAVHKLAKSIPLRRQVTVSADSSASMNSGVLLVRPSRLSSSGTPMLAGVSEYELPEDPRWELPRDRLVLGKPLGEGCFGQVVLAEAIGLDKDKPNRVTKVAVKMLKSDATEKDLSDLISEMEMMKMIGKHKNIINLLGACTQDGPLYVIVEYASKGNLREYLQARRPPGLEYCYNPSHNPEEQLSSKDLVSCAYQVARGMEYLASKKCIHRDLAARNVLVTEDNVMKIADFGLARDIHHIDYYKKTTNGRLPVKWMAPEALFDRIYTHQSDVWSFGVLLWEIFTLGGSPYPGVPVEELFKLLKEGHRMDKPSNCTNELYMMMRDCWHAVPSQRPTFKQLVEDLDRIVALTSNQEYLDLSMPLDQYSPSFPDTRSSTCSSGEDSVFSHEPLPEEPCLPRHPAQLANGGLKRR
measurement notes: phosphorylation enrichment, bacterial display (enrichment ratio); higher = better substrate or ligand; peptides without Tyr show the background
reported metric: phosphorylation enrichment

The sequence KPVEEYANCHL [TF_Y593] showed phosphorylation enrichment equal to 0.61

The sequence RHCSGYVLIAM [EFR3A_Y73_R70C] showed phosphorylation enrichment equal to 0.596

The sequence HSLRDYKEALM [ADA2_Y337_H335R] showed phosphorylation enrichment equal to 0.601

The sequence ADARMYGDLPW [PLP1_Y207_V209D] showed phosphorylation enrichment equal to 0.6

###

Examples of sequences with documented SH2 binding enrichment follow.
test system: c-Src SH2;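 further: peptide library displayed on the E. coli surface as eCPX fusions, selected cells deep-sequenced, score is each peptide's frequency after selection divided by its frequency in the input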
measurement notes: SH2 binding enrichment of the phosphorylated peptide, bacterial display (enrichment ratio); higher = better substrate or ligand; peptides without Tyr show the background
// response body must contain only the number

Illustrative cases are given below, each with its answer.
>>> recorded_result("RPQDGFRIVQH [PTPRT_Y1329_Y1329F]")
0.586
>>> recorded_result("QPGDICHQTWA [GBA_Y244_Y244C]")
0.732

Now consider the entry below.
The sequence LGKGSYAKVRS [TSSK2_Y23_K27R] showed SH2 binding enrichment equal to 2.29
